Reference for the values: patent US6060462A

In this section we review reported Ki values for a set of compounds.
Target: human factor Xa (Homo sapiens, UniProt P00742)
Construct: 0.2-0.5 nM human thrombin or human factor Xa; purchased Enzyme Research Laboratories, South Bend, Ind
Sequence (P00742 235-488 limits assumed): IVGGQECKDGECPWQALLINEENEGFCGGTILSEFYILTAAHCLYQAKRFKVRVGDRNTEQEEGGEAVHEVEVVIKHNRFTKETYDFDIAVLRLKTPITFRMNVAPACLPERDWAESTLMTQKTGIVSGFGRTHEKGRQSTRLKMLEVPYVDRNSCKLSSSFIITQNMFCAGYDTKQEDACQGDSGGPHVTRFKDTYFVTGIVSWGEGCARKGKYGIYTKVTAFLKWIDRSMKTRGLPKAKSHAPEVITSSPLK
Sequence (P00742 41-179 partner limits assumed): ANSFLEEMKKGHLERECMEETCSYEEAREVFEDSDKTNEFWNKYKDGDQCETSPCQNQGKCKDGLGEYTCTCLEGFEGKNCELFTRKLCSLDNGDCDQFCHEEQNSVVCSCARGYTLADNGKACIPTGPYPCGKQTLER
Assay: Inhibition of Factor Xa hydrolysis of chromogenic substrate S2222 (Ki)
Format: biochemical
Details: purified human factor Xa, 0.10 M sodium phosphate buffer, pH 7.5, read-out: Ki values for inhibition of Serine Proteases: Factor Xa
Structures can show the parent of a compound that is named as a salt.

>  <COMPOUND>
COC(=O)CCC(=O)N(CCc1ccccc1)CC(=O)NC(CCCCN)B(O)O (stereo not drawn) [Example 68.3.3, HCl]

>  <Ki>
< 50 µM

$$$$
>  <COMPOUND>
COC(=O)CCCC(=O)N(CCc1ccccc1)CC(=O)NC(CCCCN)B1OC2CC3CC(C3(C)C)C2(C)O1 (stereo not drawn) [Example 69.4.1, HCl]

>  <Ki>
< 50 µM

$$$$
>  <COMPOUND>
CC1(C)C2CC3OB(C(CCCCN)NC(=O)CN(CCc4ccccc4)C(=O)CNS(C)(=O)=O)OC3(C)C1C2 (stereo not drawn) [Example 69.3.2, HCl]

>  <Ki>
< 0.5 µM

$$$$
>  <COMPOUND>
CC(C)(CN(CC(=O)NC(CCCNC(=N)N)B1OC2CC3CC(C3(C)C)C2(C)O1)C(=O)CCc1ccccc1)c1ccccc1 (stereo not drawn) [Example 56.1.1, HCl]

>  <Ki>
< 0.5 µM

$$$$
>  <COMPOUND>
NCCCCC(NC(=O)CN(CCc1ccccc1C1CC1)C(=O)CCc1ccccc1)B(O)O (stereo not drawn) [Example 53.1.2, HCl]

>  <Ki>
< 0.5 µM

$$$$

Tested on human factor Xa (Homo sapiens, UniProt P00742), the item CN(CC(=O)NC(CCCSC(=N)N)B1OC2CC3CC(C3(C)C)C2(C)O1)C(=O)c1ccccc1Sc1ccccc1C#N (stereo not drawn) showed Ki equal to < 0.5 µM

# Ki measured on human factor Xa (Homo sapiens, UniProt P00742) for item N=CNCCCC(NC(=O)CN(CCc1ccccc1)C(=O)CCc1ccccc1)B(O)O (stereo not drawn) [Example 49.1.3, HCl] = < 0.5 µM

human factor Xa (Homo sapiens, UniProt P00742) Ki of NCCCCC(NC(=O)CN(CCc1cccc(C(F)(F)F)c1)C(=O)CCc1ccccc1)B(O)O (stereo not drawn) [Example 52.1.1, HCl] is < 0.5 µM

Result for Cc1cccc(CCN(CC(=O)NC(CCCCN)B2OC3CC4CC(C4(C)C)C3(C)O2)C(=O)CCC(=O)O)c1 (stereo not drawn) [Example 73.1.2, HCl] , tested on human factor Xa (Homo sapiens, UniProt P00742), Ki: < 0.5 µM

Result for CN(CC(=O)NC(CCCCNC(=N)N)B1OC2CC3CC(C3(C)C)C2(C)O1)C(=O)c1ccccc1Sc1ccccc1C#N (stereo not drawn) [Example 62.3.2, HCl] , tested on human factor Xa (Homo sapiens, UniProt P00742), Ki: < 0.5 µM

Measured on human factor Xa (Homo sapiens, UniProt P00742), CN(CC(=O)NC(CCCBr)B1OC2CC3CC(C3(C)C)C2(C)O1)C(=O)c1ccccc1Sc1ccccc1C#N (stereo not drawn) has a documented Ki of < 50 µM

Item CC1(C)C2CC3OB(C(CCCCN)NC(=O)CN(CCc4ccccc4)C(=O)CCCC(=O)O)OC3(C)C1C2 (stereo not drawn) was tested on human factor Xa (Homo sapiens, UniProt P00742); the reported Ki is < 0.5 µM

Item Cc1cc(C)cc(CCN(CC(=O)NC(CCCN)B2OC3CC4CC(C4(C)C)C3(C)O2)C(=O)CCc2ccccc2)c1 (stereo not drawn) [Example 60.4.1, HCl] was tested on human factor Xa (Homo sapiens, UniProt P00742); the reported Ki is < 50 µM

Hey, human factor Xa (Homo sapiens, UniProt P00742) data for NCCCCC(NC(=O)CN(C(=O)CCc1ccccc1)C1CC1)B(O)O (stereo not drawn) [Example 59.4.2, HCl] : Ki came out at < 50 µM

Bench note, human factor Xa (Homo sapiens, UniProt P00742): CC(C)(CC(=O)O)CC(=O)N(CCc1ccccc1)CC(=O)NC(CCCCN)B1OC2CC3CC(C3(C)C)C2(C)O1 (stereo not drawn) , Ki reads < 50 µM

Param item: NCCCCC(NC(=O)CN(C(=O)CCc1ccccc1)C1CCCCC1)B(O)O (stereo not drawn) [Example 53.4.3, HCl] ; param system: human factor Xa (Homo sapiens, UniProt P00742); output Ki: < 50 µM

// returns Ki for Cc1cc(C)cc(CCN(CC(=O)NC(CCCCN)B2OC3CC4CC(C4(C)C)C3(C)O2)C(=O)CCc2ccccc2)c1 (stereo not drawn) [Example 54.4.1, HCl] with human factor Xa (Homo sapiens, UniProt P00742); value = < 50 µM

The observed Ki for CC(C)(C)OC(=O)NC(CCC(=O)O)C(=O)N(CCc1ccccc1)CC(=O)NC(CCCCN)B(O)O (stereo not drawn) [Example 68.2.1, Boc-Glu-[N-(Phenethyl)-Gly]-boroLys--OH] when tested with human factor Xa (Homo sapiens, UniProt P00742) stands at < 50 µM

human factor Xa (Homo sapiens, UniProt P00742) Ki of CN(CC(=O)NC(CCCNC(=N)N)B1OC2CC3CC(C3(C)C)C2(C)O1)C(=O)c1ccccc1Sc1ccccc1C#N (stereo not drawn) is < 0.5 µM

Bench note, human factor Xa (Homo sapiens, UniProt P00742): CN(CC(=O)NC(CCCCN)B1OC2CC3CC(C3(C)C)C2(C)O1)C(=O)c1ccccc1Cc1cccc(Cl)c1 (stereo not drawn) , Ki reads < 0.5 µM
